# MEASUREMENT TARGET: CDK7/Cyclin H/MNAT1 (Homo sapiens)
# Construct: purchased Invitrogen PR6749B
# Sequence (P50613 whole entry): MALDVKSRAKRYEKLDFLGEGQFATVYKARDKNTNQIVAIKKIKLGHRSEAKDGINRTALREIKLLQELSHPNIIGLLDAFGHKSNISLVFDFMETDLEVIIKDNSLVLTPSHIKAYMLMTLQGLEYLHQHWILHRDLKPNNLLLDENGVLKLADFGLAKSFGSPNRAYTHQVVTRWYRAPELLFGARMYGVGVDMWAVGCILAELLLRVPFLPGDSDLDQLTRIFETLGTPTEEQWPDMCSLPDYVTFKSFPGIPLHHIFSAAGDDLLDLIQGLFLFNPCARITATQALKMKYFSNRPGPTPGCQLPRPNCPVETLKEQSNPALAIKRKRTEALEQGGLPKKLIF
# Sequence (P51946 whole entry partner): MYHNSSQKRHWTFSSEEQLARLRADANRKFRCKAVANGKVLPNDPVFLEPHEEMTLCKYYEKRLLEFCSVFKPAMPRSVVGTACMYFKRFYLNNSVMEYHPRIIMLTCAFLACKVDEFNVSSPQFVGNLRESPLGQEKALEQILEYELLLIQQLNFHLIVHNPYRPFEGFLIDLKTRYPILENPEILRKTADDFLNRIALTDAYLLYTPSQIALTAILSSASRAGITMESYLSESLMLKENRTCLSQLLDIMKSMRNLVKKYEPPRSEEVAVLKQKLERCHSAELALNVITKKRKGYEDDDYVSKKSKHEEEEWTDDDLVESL
# Sequence (P51948 whole entry partner): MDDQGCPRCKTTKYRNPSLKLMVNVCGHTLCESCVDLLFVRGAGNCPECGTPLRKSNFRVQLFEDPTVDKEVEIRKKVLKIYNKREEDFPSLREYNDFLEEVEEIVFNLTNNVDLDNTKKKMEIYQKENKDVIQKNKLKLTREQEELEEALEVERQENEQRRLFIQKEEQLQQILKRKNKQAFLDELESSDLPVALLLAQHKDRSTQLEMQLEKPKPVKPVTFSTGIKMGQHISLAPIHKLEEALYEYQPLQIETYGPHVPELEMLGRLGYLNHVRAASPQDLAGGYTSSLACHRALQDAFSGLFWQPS
# MEASUREMENT NOTES: Enzymatic assay for CDK7 (FRET based LANCE Ultra kinase assay)
# Format: biochemical
# EXPERIMENTAL PARAMETERS: read-out: CDK7 enzymatic activity (IC50 activity range)
pIC50: −log10 of the molar value.
Listed below: pIC50 values for each entry.

Record excerpt, results attached:
> print(dat)
                                   compound  measured.result
1  CC(C)c1cnn2c(NCc3ccccc3-c3ccc4ccccc4n3)nc(N[C@H]3CC[C@@H](O)CC3)nc12 [Compound 265]           > 7.00
2  CC(C)c1cnn2c(NCc3c(Cl)cccc3N3CC[C@@H](C(C)(C)O)C3)nc(N3CCC(N)CC3)nc12 [Compound 254]           > 7.00
3  CC(C)c1cnn2c(NCc3ccccc3-c3ccc4ccccc4n3)nc(O[C@H]3CC[C@@H](O)CC3)nc12 [Compound 272]           > 7.00
4  CC(C)c1cnn2c(NCc3ccccc3-c3ccc4ccccc4n3)nc(NCC3CCOCC3)nc12 [Compound 267]     6.00 to 7.00

Recorded pIC50 of CC(C)c1cnn2c(NCc3c(Cl)cccc3-c3ccc4ccccc4n3)nc(N3CCCC[C@H]3CO)nc12 [Compound 264] , please. 6.00 to 7.00

---

# MEASUREMENT TARGET: CDK4/CycD2 (Homo sapiens)
# Sequence (P11802 whole entry): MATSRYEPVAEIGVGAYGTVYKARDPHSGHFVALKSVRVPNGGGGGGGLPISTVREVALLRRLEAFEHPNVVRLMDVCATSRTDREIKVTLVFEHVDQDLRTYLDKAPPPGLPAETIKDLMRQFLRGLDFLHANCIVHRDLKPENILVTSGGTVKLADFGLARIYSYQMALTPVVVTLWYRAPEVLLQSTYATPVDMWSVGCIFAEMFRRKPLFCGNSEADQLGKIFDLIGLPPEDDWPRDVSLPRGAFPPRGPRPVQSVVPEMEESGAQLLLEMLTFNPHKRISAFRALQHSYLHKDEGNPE
# Sequence (P30279 whole entry partner): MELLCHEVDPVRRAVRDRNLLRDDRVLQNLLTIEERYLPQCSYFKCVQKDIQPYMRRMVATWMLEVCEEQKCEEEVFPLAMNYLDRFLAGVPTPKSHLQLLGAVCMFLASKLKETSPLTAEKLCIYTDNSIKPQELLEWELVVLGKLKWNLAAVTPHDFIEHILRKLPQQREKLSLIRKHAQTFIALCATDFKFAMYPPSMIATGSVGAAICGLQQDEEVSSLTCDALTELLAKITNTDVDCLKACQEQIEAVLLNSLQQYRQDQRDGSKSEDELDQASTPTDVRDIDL
# MEASUREMENT NOTES: In vitro IC50 profile for CDKs family kinase (33PanQinase radiometric assay)
# EXPERIMENTAL PARAMETERS: CDK7 selectivity profile in CDKs family
PROPERTY LABEL: IC50

Quick check: IC50 of CC(C)c1cnn2c(NCc3c(Cl)cccc3-n3ccc(C(C)(C)O)n3)nc(N3CCC(N)CC3)nc12 ? > 10 µM

---

# MEASUREMENT TARGET: CDK5/p25 (Homo sapiens, UniProt Q00535)
# Construct: purchased Invitrogen PR8543B
# Sequence (Q00535 whole entry): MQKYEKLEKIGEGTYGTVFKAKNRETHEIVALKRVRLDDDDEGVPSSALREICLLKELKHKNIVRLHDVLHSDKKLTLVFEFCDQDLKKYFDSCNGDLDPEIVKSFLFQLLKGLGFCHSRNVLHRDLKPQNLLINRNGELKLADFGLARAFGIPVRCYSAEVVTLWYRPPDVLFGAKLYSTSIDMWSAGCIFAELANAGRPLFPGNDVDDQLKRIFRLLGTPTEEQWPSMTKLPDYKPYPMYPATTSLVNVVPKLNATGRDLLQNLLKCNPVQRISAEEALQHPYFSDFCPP
# Sequence (Q15078 99-307 partner limits assumed): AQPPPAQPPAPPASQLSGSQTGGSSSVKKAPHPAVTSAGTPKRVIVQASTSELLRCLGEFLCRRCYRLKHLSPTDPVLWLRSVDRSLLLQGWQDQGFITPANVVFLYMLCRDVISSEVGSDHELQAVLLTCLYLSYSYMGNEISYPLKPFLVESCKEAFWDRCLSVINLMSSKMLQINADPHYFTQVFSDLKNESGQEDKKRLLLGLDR
# MEASUREMENT NOTES: Enzymatic assay for CDK5 (FRET based LANCE Ultra kinase assay)
# Assay type: biochemical
# EXPERIMENTAL PARAMETERS: read-out: CDK5 enzymatic activity (IC50 range)
PROPERTY LABEL: IC50

Worked cases, IC50 given:
> print(dat)
                                   compound                       measurement.target  measured.result
1  CC(C)c1cnn2c(NCc3ccccc3-n3cccn3)nc(-c3cccc(C4CCNCC4)c3)nc12  CDK5/p25 (Homo sapiens, UniProt Q00535)      0.1 to 1 µM
2  CC(C)c1cnn2c(NCc3ccccc3-n3cc(N4CCN(C)CC4)cn3)nc(N3CCC(N)CC3)nc12  CDK5/p25 (Homo sapiens, UniProt Q00535)      0.1 to 1 µM
3  CC(C)c1cnn2c(NCc3ccccc3-c3cn4ccccc4n3)nc(N3CCC(N)CC3)nc12  CDK5/p25 (Homo sapiens, UniProt Q00535)         < 0.1 µM
4  NC1CCN(c2nc(NCc3ccccc3-n3cccn3)n3ncc(I)c3n2)CC1  CDK5/p25 (Homo sapiens, UniProt Q00535)         < 0.1 µM

Identify the measured IC50 of CC(C)c1cnn2c(N[C@@H](C)c3ccccc3-n3cc4ccccc4n3)nc(N3CCC(N)CC3)nc12 for CDK5/p25 (Homo sapiens, UniProt Q00535). > 1 µM

Let us now turn to CC(C)c1cnn2c(NCc3ccccc3Oc3ccccc3)nc(N3CCC(N)CC3)nc12 0.1 to 1 µM

Now consider CC(C)c1cnn2c(NCc3ccccc3-n3cc(N4CCOCC4)cn3)nc(N3CCC(N)CC3)nc12 . 0.1 to 1 µM

// next record CC(C)c1cnn2c(NCc3ccccc3Oc3ccc(NC(=O)CCCN(C)C)cc3)nc(N3CCC(N)CC3)nc12 0.1 to 1 µM

Please give the result for CC(C)c1cnn2c(NCc3cccc(N4CCN(C)CC4)c3)nc(N3CCC(N)CC3)nc12 too. 0.1 to 1 µM

Another compound to check: CC(C)c1cnn2c(NC(C)c3ccccc3-n3ccc(CO)n3)nc(N3CCC(N)CC3)nc12 (racemic) > 1 µM

Next compound: CC(C)c1cnn2c(NCc3ccccc3-n3ccc(C(C)(C)O)n3)nc(OCC3CCNCC3)nc12 > 1 µM

Also CC(C)c1cnn2c(NCc3ccccc3-n3cc4ccccc4n3)nc(N3CCC(N)CC3)nc12 , if possible. 0.1 to 1 µM

Moving on to the next compound: CCC(=O)N1CCc2nn(-c3cccc(Cl)c3CNc3cc(O[C@@H]4CCCNC4)nc4c(C(C)C)cnn34)cc2C1 > 1 µM

Moving on to the next compound: CC(C)c1cnn2c(NCc3ccccc3-n3ccc(C(C)(C)O)n3)nc(NCC3CCNCC3O)nc12 (stereo not drawn) > 1 µM

What do we get for CC(C)c1cnn2c(NCc3c(Cl)cccc3-n3cc(N4CCNCC4)cn3)nc(N3CCC(N)CC3)nc12 ? 0.1 to 1 µM

---

# MEASUREMENT TARGET: CDK1/Cyclin B (Homo sapiens, UniProt P06493)
# Construct: purchased Invitrogen PR4768C
# Sequence (P06493 whole entry): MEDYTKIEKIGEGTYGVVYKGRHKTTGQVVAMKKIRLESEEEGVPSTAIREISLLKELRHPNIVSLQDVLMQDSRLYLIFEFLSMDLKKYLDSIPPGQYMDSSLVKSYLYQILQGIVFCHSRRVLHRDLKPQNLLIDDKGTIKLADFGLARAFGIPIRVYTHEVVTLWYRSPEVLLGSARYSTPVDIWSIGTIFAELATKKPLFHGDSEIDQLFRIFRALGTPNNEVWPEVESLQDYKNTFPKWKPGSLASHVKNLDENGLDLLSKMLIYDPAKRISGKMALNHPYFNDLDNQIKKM
# Sequence (P14635 whole entry partner): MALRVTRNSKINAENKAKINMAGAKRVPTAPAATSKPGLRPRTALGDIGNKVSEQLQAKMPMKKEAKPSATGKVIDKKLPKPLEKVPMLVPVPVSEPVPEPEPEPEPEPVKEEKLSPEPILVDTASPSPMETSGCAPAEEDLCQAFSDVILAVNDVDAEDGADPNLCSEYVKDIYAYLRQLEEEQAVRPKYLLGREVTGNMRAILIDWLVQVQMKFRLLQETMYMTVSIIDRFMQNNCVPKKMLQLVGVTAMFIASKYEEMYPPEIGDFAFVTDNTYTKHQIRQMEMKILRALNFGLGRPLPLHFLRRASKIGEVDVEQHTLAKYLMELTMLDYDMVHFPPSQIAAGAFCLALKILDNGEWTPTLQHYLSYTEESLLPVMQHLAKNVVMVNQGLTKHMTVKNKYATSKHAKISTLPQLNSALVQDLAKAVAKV
# MEASUREMENT NOTES: Enzymatic assay for CDK1 (FRET based LANCE Ultra kinase assay)
# Type: biochemical
# EXPERIMENTAL PARAMETERS: read-out: CDK1 enzymatic activity (IC50 range)
PROPERTY LABEL: IC50

The examples below pair each entry with its known result.
> print(dat)
                    structure.smiles.string  measured.result
1  CC(C)c1cnn2c(NCc3ccccc3-c3ncc4ccccc4n3)nc(N3CCC(N)CC3)nc12   100 to 1000 nM
2  CC(C)c1cnn2c(NCc3c(Cl)cccc3-n3ccc(N4CCOCC4)n3)nc(N3CCC(N)CC3)nc12        > 1000 nM
3  CC(C)c1cnn2c(NCc3c(Cl)cccc3-n3ccc(C(C)(C)O)n3)nc(N3CCC(N)CC3)nc12        > 1000 nM

Now, please, on to the next compound.
Hi! What's the reported IC50 for CC(C)c1cnn2c(NCc3ccccc3N3Cc4ccccc4C3)nc(N3CCC(N)CC3)nc12 on CDK1/Cyclin B (Homo sapiens, UniProt P06493)? 100 to 1000 nM

---

# MEASUREMENT TARGET: CDK2/Cyclin A (Homo sapiens, UniProt P24941)
# Construct: purchased Invitrogen PV6290
# MEASUREMENT NOTES: Enzymatic assay for CDK2 (FRET based LANCE Ultra kinase assay)
# Type: biochemical
# EXPERIMENTAL PARAMETERS: read-out: CDK2 enzymatic activity (IC50 range)
Quick list: IC50 per entry.

> print(dat)
                    structure.smiles.string  measured.result
1  CCCc1ccccc1CNc1nc(N2CCC(N)CC2)nc2c(C(C)C)cnn12   100 to 1000 nM
2  CC(C)c1cnn2c(NCc3ccccc3Oc3ccccc3)nc(N3CCC(N)CC3)nc12        > 1000 nM
3  CC(C)c1cnn2c(NCc3ccccc3-c3cc4cccc(NC(=O)CCCN(C)C)c4[nH]3)nc(N3CCC(N)CC3)nc12   100 to 1000 nM

GET /values?readout=IC50&item= CC(C)c1cnn2c(NCc3cccc4ccc(C5CC5)nc34)nc(N3CCC(N)CC3)nc12 > 1000 nM

Query CCCNC(=O)Nc1ccccc1CNc1nc(N2CCC(N)CC2)nc2c(C(C)C)cnn12 next 100 to 1000 nM

Here is the next molecule: CC(C)c1cnn2c(NCc3ccccc3-c3ccc4ccccc4n3)nc(N3CCC(CN)CC3)nc12 > 1000 nM

Another molecule to check: CC(C)c1cnn2c(NCc3ccccc3-n3cc4cccc(NC(=O)CCCN(C)C)c4n3)nc(N3CCC(N)CC3)nc12 100 to 1000 nM

Now this one: Cc1[nH]c(-c2ccccc2CNc2nc(N3CCC(N)CC3)nc3c(C(C)C)cnn23)nc1C(=O)NC1CCOCC1 100 to 1000 nM

---

# MEASUREMENT TARGET: CDK2/Cyclin A (Homo sapiens)
# Construct: purchased Invitrogen PV6290
# MEASUREMENT NOTES: Enzymatic assay for CDK2 (FRET based LANCE Ultra kinase assay)
# Type: biochemical
# EXPERIMENTAL PARAMETERS: read-out: CDK2 enzymatic activity (IC50 range)
pIC50: −log10 of the molar value.
PROPERTY LABEL: pIC50

Illustrative cases are given below, each with its answer.
> print(dat)
                                   compound  property.label  measured.result
1  CC(C)c1cnn2c(NCc3ccccc3-n3cc4c(n3)CCC(=O)C4)nc(N3CCC(N)CC3)nc12           pIC50           < 6.00
2  CC(C)c1cnn2c(NCc3ccccc3-c3cc4ccccc4[nH]3)nc(N3CCNC(=O)C3)nc12           pIC50           < 6.00
3  CC(C)c1cnn2c(NCc3ccccc3-n3cc(N4CCOCC4)cn3)nc(N3CCC(N)CC3)nc12           pIC50     6.00 to 7.00

Returns the measured pIC50 for the input compound. Input: CC(C)c1cnn2c(NCc3ccccc3-n3cccn3)nc([C@H]3CC[C@H](N)CC3)nc12 > 7.00
